The values you see were collected from patent US20230174484A1.

# target of assay: human GPR39 receptor (Homo sapiens, UniProt O43194)
# Construct: PC3 Cells, Expressing the Endogenous Human GPR39 Receptor; endogenous in cells
# assay summary: Measurement of intracellular calcium response in PC3 cells (FLIPR), antagonism of the C3 agonist response
# measurement parameters: functional pKi (modified Cheng-Prusoff), inhibition of the C3 (TC-G 1008) response at EC90, 30 μM ZnCl2, read-out: fpKi activity
metric name: Ki

Solved entries:
CC(C)c1ccn(-c2cc(NC(=O)C3CC3)ccc2C(=O)N2CCS(=O)(=O)CC2)n1 :: ≤ 50.1 nM
CN1CCN(C(=O)c2ccc(NC(=O)C3CC3)cc2N2CCCC2)C(c2cccc(F)c2)C1 (single isomer, unassigned) [Example 88a] :: 63.1 to 251 nM
CN1CCN(C(=O)c2ccc(NC(=O)C3CC3)cc2N2CCOCC2)C(c2ccccc2)C1 (stereo not shown) :: 1260 to 6310 nM
Cc1nnc(-c2ccc(C(=O)N3CCN(C)CC3c3ccccc3)c(N3CCC(C(F)(F)F)C3)c2)[nH]1 (single isomer, unassigned) [Example 177a] :: 63.1 to 251 nM

Req: Using human GPR39 receptor (Homo sapiens, UniProt O43194) as the test system, report measured Ki of Cc1nnc(-c2ccc(C(=O)N3CCC(C(F)(F)F)CC3)c(N3CCCC3)c2)[nH]1 .
Resp: 63.1 to 251 nM

Req: Please tell me the measured Ki for O=C(Nc1ccc(C(=O)N2CCS(=O)(=O)CC2)c(-n2ccc(C(F)(F)F)n2)c1)C1CC1 ; system: human GPR39 receptor (Homo sapiens, UniProt O43194).
Resp: ≤ 50.1 nM

---

# target of assay: human GPR39 receptor (Homo sapiens, UniProt O43194)
# Construct: PC3 Cells, Expressing the Endogenous Human GPR39 Receptor; endogenous in cells
# Sequence (O43194 1-453): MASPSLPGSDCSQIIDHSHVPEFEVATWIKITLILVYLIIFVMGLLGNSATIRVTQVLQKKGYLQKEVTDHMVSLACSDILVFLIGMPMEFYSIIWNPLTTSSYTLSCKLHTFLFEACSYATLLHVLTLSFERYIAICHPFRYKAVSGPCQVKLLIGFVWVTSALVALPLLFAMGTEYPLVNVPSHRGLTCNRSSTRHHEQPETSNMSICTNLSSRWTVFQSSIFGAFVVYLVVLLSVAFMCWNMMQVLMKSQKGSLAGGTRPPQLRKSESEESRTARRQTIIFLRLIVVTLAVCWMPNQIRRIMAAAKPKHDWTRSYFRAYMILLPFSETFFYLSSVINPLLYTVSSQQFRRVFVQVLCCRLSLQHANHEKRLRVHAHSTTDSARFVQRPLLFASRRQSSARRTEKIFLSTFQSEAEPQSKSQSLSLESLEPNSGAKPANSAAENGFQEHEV
# assay summary: Measurement of intracellular calcium response in PC3 cells (FLIPR), antagonism of the C3 agonist response
# measurement parameters: functional pKi (modified Cheng-Prusoff), inhibition of the C3 (TC-G 1008) response at EC90, 30 μM ZnCl2, read-out: fpKi activity
pKi: −log10 of the molar value.
metric name: pKi

Req: Identify pKi associated with the compound CCCN1CCN(C(=O)c2ccc(-c3nnc(C4CC4)[nH]3)cc2N2CCCCCC2)CC1
Resp: 6.00 to 6.50

Req: Fill in reported pKi for this entry: CN1CCN(C(=O)c2ccc(NC(=O)C3CC3)cc2N2CCC(C(F)(F)F)C2)C(c2ccccc2)C1 (single isomer, unassigned) [Example 199a]
Resp: ≥ 7.30

Req: Quote pKi reported for CN1CCN(C(=O)c2ccc(NC(=O)C3CC3)cc2N2CCCC2)C(c2cccnc2)C1 (racemic) please.
Resp: 6.00 to 6.50
